System: MS2 coat protein
protocolSummary: apparent KD of MS2 coat protein; designed switch direction (-1 OFF switch, 1 ON switch): -1; higher = weaker reporter binding
setupConditions: input ligand: microRNA oligo, concentration not stated
Exercise: for every item that follows, state its recorded apparent KD of MS2 coat protein.

Exam item: Give the reported apparent KD of MS2 coat protein for CCUAUGUGAGGAUAUCACUGGUCUUCUUUUAUUUUUUACAGUGAGAAGGCACAUGAGGAUCACCCAUGUCGGUG [Ex4 - 3 - 49] (Eterna round: R96, puzzle: Exclusion 4) (system: MS2 coat protein).
Marked response: 115 nM

Exam item: Give the reported apparent KD of MS2 coat protein for AAUGAUUGACGAGGAUAUUGUGGUAGAUCACGACGAGAAGGCGUAUGUCACAUGAGGAUCACCCAUGUGAGCUUUGUGGAUAGA [Ex NG1 #74] (Eterna round: R96, puzzle: Exclusion NG 1) (system: MS2 coat protein).
Marked response: 16.1 nM

Exam item: Give the reported apparent KD of MS2 coat protein for UUAUUAUAUGUAGGAUAUGCAUAUUAUUAUUAUGCAGAAGGACAUGAGGAUCACCCAUGUAUAUUAUUGUUAUAUAUUAUAUAU [Title] (Eterna round: R96, puzzle: Exclusion NG 1) (system: MS2 coat protein).
Marked response: 21 nM

Entry source: the supplement of paper PMC9170038
